Data credit: the supplement of paper PMC11908140

B1: library; numbered along this chain (parent)
chain: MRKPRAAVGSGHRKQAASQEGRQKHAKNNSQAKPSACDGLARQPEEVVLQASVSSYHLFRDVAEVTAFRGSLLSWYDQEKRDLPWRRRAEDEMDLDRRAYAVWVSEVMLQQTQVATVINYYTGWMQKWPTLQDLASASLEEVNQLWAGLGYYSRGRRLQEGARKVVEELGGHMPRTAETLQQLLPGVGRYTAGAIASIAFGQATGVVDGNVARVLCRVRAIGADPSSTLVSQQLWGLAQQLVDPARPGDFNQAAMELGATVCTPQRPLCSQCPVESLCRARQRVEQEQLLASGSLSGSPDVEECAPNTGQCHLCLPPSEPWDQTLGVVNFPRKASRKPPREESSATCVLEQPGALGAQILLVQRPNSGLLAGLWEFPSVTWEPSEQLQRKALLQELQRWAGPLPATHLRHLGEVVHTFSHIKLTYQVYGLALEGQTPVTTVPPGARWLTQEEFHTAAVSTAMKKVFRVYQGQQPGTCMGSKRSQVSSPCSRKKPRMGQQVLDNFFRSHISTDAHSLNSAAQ

Variants of: B1
Assay: 8OG:A repair function score (normalized; synonymous = 0, nonsense = -1) (normalized log-likelihood score); higher = more repair activity (WT-like);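 also: cells sorted at 72 h after reporter transfection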
Settings: with 8OG:A DNA repair reporter (GFP) in HEK-293 MUTYH KO cells
reported_property: 8OG:A repair function score

mutant_designation	reported_property	value_reported
P267S	8OG:A repair function score	-0.361
K481T	8OG:A repair function score	-0.0524
F59Y	8OG:A repair function score	-0.161
C311I	8OG:A repair function score	-0.59
H420S	8OG:A repair function score	-0.494
S378H	8OG:A repair function score	-0.255
L109R	8OG:A repair function score	-1.05
V62K	8OG:A repair function score	0.00655
L139Q	8OG:A repair function score	-0.0666
M93R	8OG:A repair function score	0.00556
N503Q	8OG:A repair function score	0.0112
H410Q	8OG:A repair function score	-0.291
N119C	8OG:A repair function score	-0.0452
R398G	8OG:A repair function score	-0.102
T263I	8OG:A repair function score	-0.0749
S226D	8OG:A repair function score	-0.146
C278A	8OG:A repair function score	-1.11
Q394C	8OG:A repair function score	-0.273
A391S	8OG:A repair function score	-0.175
C278V	8OG:A repair function score	-1.16
F376G	8OG:A repair function score	-1.2
R97I	8OG:A repair function score	0.00215
